These measurements were taken from paper PMC3480388.

TGT: wild type rP2X2 (Rattus norvegicus, UniProt P49653)
Sequence (P49653 whole entry): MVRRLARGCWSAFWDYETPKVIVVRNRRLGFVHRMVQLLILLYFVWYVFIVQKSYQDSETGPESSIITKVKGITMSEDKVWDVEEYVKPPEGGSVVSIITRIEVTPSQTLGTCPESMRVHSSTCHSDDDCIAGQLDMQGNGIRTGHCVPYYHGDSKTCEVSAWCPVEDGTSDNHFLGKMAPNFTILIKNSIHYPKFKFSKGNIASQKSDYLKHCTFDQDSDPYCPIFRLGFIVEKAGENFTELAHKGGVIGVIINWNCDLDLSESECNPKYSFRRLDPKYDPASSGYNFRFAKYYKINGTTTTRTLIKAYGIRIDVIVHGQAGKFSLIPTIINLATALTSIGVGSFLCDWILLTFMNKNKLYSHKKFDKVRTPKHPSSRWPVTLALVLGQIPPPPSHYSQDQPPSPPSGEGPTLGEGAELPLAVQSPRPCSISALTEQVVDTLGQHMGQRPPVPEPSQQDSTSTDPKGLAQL
TEST_DESCRIPTION: Two-electrode voltage clamp of Xenopus oocytes expressing wild type rP2X2
MEASUREMENT_CONTEXT: wild type rP2X2
QUANTITY_MEASURED: pEC50
In simple prose, pEC50 is minus the logarithm base ten of a concentration in moles per litre.

Prompt: May I ask what pEC50 has been recorded for Nc1ncnc2c1ncn2C1OC(COP(=O)(O)OP(=O)(O)OP(=O)(O)O)C(O)C1O (stereo not shown) [ATP, Disodium ATP] ?
Response: 4.49

---

TGT: rP2X2 K69C mutant receptor (Rattus norvegicus, UniProt P49653, K69C)
Construct: expressed in transfected cells; host or cells: Xenopus laevis oocytes (RNA injection)
Sequence (P49653 whole entry K69C): as the sequence (P49653 whole entry) above, with K69C counted along it
TEST_DESCRIPTION: Two-electrode voltage clamp of Xenopus oocytes expressing K69C mutant rP2X2
Type: cell-based
MEASUREMENT_CONTEXT: MTSEA-modified K69C
QUANTITY_MEASURED: pEC50
In simple prose, pEC50 is minus the logarithm base ten of a concentration in moles per litre.

Prompt: May I ask what pEC50 has been recorded for Nc1ncnc2c1ncn2C1OC(COP(=O)(O)OP(=O)(O)OP(=O)(O)O)C(O)C1O (stereo not shown) [ATP, Disodium ATP] ?
Response: 3.03
